The values you see were collected from patent US9115151B2.

- STUDY SYSTEM: PKCα (Homo sapiens)
- Construct: His6; purchased Millipore; host or cells: baculovirus in Sf21 cells
- TEST DETAILS: In vitro enzyme assay (time-resolved fluorescence kinase assay), PKCα, 100 μM ATP
- Assay type: biochemical
- MEASUREMENT PARAMETERS: 100 μM ATP; read-out: PKCα enzyme IC50
- Procedure: PKC kinase activity was assayed by time-resolved fluorescence in vitro kinase assay. Unless otherwise indicated, all reagents used for enzyme assays were obtained from Sigma. […]
Structures can show the parent of a compound that is named as a salt.
Below, each of the molecules is paired with its reported IC50 value.

Solved cases (5 shown):
# MOLECULE, STUDY SYSTEM, IC50
data = [
    ("CC1C(=O)NN=C2COc3cc(-c4cccc(Cl)c4)c(NC4CNC4)cc3N21 (racemic) [Example 17]", "PKCα (Homo sapiens)", "1000 to 10000 nM"),
    ("C[C@@H]1C(=O)NN=C2COc3cc4c(cc3N21)N([C@H]1CCNC1)CC4 [Example 154]", "PKCα (Homo sapiens)", "1000 to 10000 nM"),
    ("C[C@@H]1C(=O)NN=C2COc3cc(-c4ccccc4F)c(NC4CNC4)cc3N21 [Example 3]", "PKCα (Homo sapiens)", "1000 to 10000 nM"),
    ("C[C@@H]1C(=O)NN=C2COc3cc4ccn(C5(C)CNC5)c4cc3N21 [Example 148, hydrochloride]", "PKCα (Homo sapiens)", "250 to 1000 nM"),
    ("C[C@@H]1C(=O)NN=C2COc3cc(-c4ccccc4F)c(N(C)C4(C)CN(CCO)C4)cc3N21 [Example 191]", "PKCα (Homo sapiens)", "250 to 1000 nM"),
]

Exam item: I would be grateful if you could share the reported IC50 for C[C@@H]1C(=O)NN=C2COc3cc(-c4ccccc4F)c(N(C)C4(C)CN(CC(C)(C)O)C4)cc3N21 [Example 190] .
Marked response: 250 to 1000 nM

Exam item: Then what about the molecule C[C@@H]1C(=O)NN=C2COc3cc(-c4ccccc4F)c(N(C)[C@@]4(C)CCN(C)C4)cc3N21 (single isomer, unassigned) [Example 198-3] ?
Marked response: 250 to 1000 nM

====

- STUDY SYSTEM: PKCα (Homo sapiens, UniProt P17252)
- Construct: His6; purchased Millipore; host or cells: baculovirus in Sf21 cells
- TEST DETAILS: In vitro enzyme assay (time-resolved fluorescence kinase assay), PKCα, 100 μM ATP
- Type: biochemical
- MEASUREMENT PARAMETERS: 100 μM ATP; read-out: PKCα enzyme IC50
Recorded IC50 values for a group of compounds are listed next.

Examples from the recorded data:
# COMPOUND, DATA VALUE
data = [
    ("CC1C(=O)NN=C2COc3cc(Nc4ccccc4)c(NC4CNC4)cc3N21 (centres unmarked)", "1000 to 10000 nM"),
    ("CC1C(=O)NN=C2COc3cc(C(F)(F)F)c(OC4(C)CNC4)cc3N21 (centres unmarked)", "< 250 nM"),
]

Exam item: Fill in: IC50 of CC1C(=O)NN=C2COc3cc(-c4cccc(C#N)c4)c(NC4CNC4)cc3N21 (racemic) is ___
Marked response: 1000 to 10000 nM

Exam item: Try this compound next: CC(C)c1cc2c(cc1[C@@H](C)C1(C)CNC1)N1C(=NNC(=O)[C@H]1C)CO2
Marked response: 1000 to 10000 nM

Exam item: Request: C[C@@H]1C(=O)NN=C2COc3cc4ccn([C@]5(C)CCNC5)c4cc3N21
Marked response: 1000 to 10000 nM

Exam item: Next compound up: C[C@@H]1C(=O)NN=C2COc3cc(-c4ccccc4F)c([C@@H](C)C4(C)CN(CC5COC5)C4)cc3N21
Marked response: 1000 to 10000 nM

Exam item: Please answer likewise for CC(C)c1cc2c(cc1OC1(C)CNC1)N1C(=NNC(=O)[C@H]1C)CO2 (single isomer, unassigned)
Marked response: 1000 to 10000 nM

Exam item: Now the compound Cc1ccccc1-c1cc2c(cc1NC1CNC1)N1C(=NNC(=O)C1C)CO2 (racemic)
Marked response: 1000 to 10000 nM

Exam item: Similarly, C[C@H]1C(=O)NN=C2COc3cc(-c4ccccc4F)c(N(C)[C@]4(C)CCN(C)C4)cc3N21 (single isomer, unassigned) ?
Marked response: 1000 to 10000 nM

Exam item: Ok, now C[C@@H]1CN(C)CC[C@@H]1c1cc2c(cc1-c1ccccc1CO)OCC1=NNC(=O)[C@@H](C)N12
Marked response: 250 to 1000 nM

Exam item: Entry to check: CC1C(=O)NN=C2COc3cc(-c4ccc(C(C)(C)C)cc4)c(NC4CNC4)cc3N21 (racemic)
Marked response: 1000 to 10000 nM

Exam item: Thanks! And CC1C(=O)NN=C2COc3cc(-c4ccc(Cl)c(Cl)c4)c(NC4CNC4)cc3N21 (racemic) ?
Marked response: 1000 to 10000 nM

Exam item: Subsequent entry: CC1C(=O)NN=C2COc3ccc(OC4(C)CNC4)cc3N21 (centres unmarked)
Marked response: 1000 to 10000 nM

Exam item: Moving on to C[C@@H]1C(=O)NN=C2COc3cc(-c4ccccc4F)c(N(C)[C@]4(C)CCN(C)C4)cc3N21 (single isomer, unassigned)
Marked response: 250 to 1000 nM

Exam item: Ok, now CC(C)c1cc2c(cc1[C@@H]1CCN(C)C[C@@H]1C)N1C(=NNC(=O)[C@H]1C)CO2
Marked response: 250 to 1000 nM

Exam item: Next record, please: C[C@@H]1C(=O)NN=C2COc3cc(-c4ccccc4F)c([C@H]4CCCNC4)cc3N21
Marked response: 1000 to 10000 nM

Exam item: Note, next up: CC1C(=O)NN=C2COc3cc(-c4ccccc4C(F)(F)F)c(NC4CNC4)cc3N21 (racemic)
Marked response: 1000 to 10000 nM

Exam item: // query: CC1C(=O)NN=C2COc3cc(C4CCCC4)c(NC4CNC4)cc3N21 (centres unmarked)
Marked response: 1000 to 10000 nM

Exam item: Then what about the compound C[C@@H]1C(=O)NN=C2COc3cc(-c4ccccc4CO)c(N(C)C4(C)CN(CCO)C4)cc3N21 ?
Marked response: 1000 to 10000 nM

Exam item: Would you mind doing C[C@H]1C(=O)NN=C2COc3cc(C(F)(F)F)c(NC4CNC4)cc3N21 (single isomer, unassigned) as well?
Marked response: 1000 to 10000 nM

Exam item: // query: COCCN1CC(C)(N(C)c2cc3c(cc2-c2ccccc2F)OCC2=NNC(=O)[C@@H](C)N23)C1
Marked response: 250 to 1000 nM

Exam item: Next compound: CC1C(=O)NN=C2COc3cc(-c4ccc(OC(F)(F)F)cc4)c(NC4CNC4)cc3N21 (racemic)
Marked response: 1000 to 10000 nM

====

- STUDY SYSTEM: PKCα (Homo sapiens)
- Construct: His6; purchased Millipore; host or cells: baculovirus in Sf21 cells
- TEST DETAILS: In vitro enzyme assay (time-resolved fluorescence kinase assay), PKCα, 100 μM ATP
- Assay type: biochemical
- MEASUREMENT PARAMETERS: 100 μM ATP; read-out: PKCα enzyme IC50
pIC50: −log10 of the molar value.
MEASURE NAME: pIC50

Illustrative cases are given below, each with its answer.
# MOLECULE, STUDY SYSTEM, pIC50
records = [
    ("C[C@@H]1C(=O)NN=C2COc3cc(-c4ccc(OC(F)(F)F)cc4)c(NC4CNC4)cc3N21 [Example 11]", "PKCα (Homo sapiens)", "5.00 to 6.00"),
    ("Cc1cc2c(cc1OC1CNC1)N1C(=NNC(=O)C1C)CO2 (stereo not drawn) [Example 67]", "PKCα (Homo sapiens)", "5.00 to 6.00"),
    ("CC(C)c1cc2c(cc1OC1(C)CNC1)N1C(=NNC(=O)C1C)CO2 (stereo not drawn) [Example 82, trifluoroacetic acid]", "PKCα (Homo sapiens)", "6.00 to 6.60"),
    ("CC1C(=O)NN=C2COc3cc(-c4ccc(F)c(F)c4)c(NC4CNC4)cc3N21 (racemic) [Example 23]", "PKCα (Homo sapiens)", "5.00 to 6.00"),
]

Exam item: Requested field: pIC50. Item: Cc1cccc(-c2cc3c(cc2NC2CNC2)N2C(=NNC(=O)C2C)CO3)c1 (racemic) [Example 22]
Marked response: 5.00 to 6.00

Exam item: Again, but for C[C@@H]1C(=O)NN=C2COc3cc(C(F)(F)F)c([C@H](C)C4(C)CNC4)cc3N21 (single isomer, unassigned) [Example 147-2, trifluoroacetic acid]
Marked response: 5.00 to 6.00

Exam item: Also C[C@@H]1C(=O)NN=C2COc3cc4ccn([C@H]5CCNC5)c4cc3N21 [Example 151-1] ?
Marked response: 6.00 to 6.60

Exam item: Okay, and CC1C(=O)NN=C2COc3cc(-c4cccc(C#N)c4)c(N(C)C4(C)CN(C)C4)cc3N21 (stereo not drawn) [Example 170] ?
Marked response: 5.00 to 6.00

Exam item: Then C[C@@H]1C(=O)NN=C2COc3cc(-c4ccc(F)cc4F)c(N(C)C4(C)CN(C)C4)cc3N21 [Example 178] ?
Marked response: 6.00 to 6.60

Exam item: // query: C[C@@H]1C(=O)NN=C2COc3cc(-c4ccccc4Cl)c(N(C)C4(C)CN(C)C4)cc3N21 [Example 177]
Marked response: 6.00 to 6.60

Exam item: Record: C[C@@H]1C(=O)NN=C2COc3cc(-c4ccccc4F)c([C@@H](C)C4(C)CNC4)cc3N21 [Example 146]
Marked response: > 6.60

Exam item: Follow-up item: CCc1cc2c(cc1NC1CNC1)N1C(=NNC(=O)C1C)CO2 (stereo not drawn) [Example 59]
Marked response: 5.00 to 6.00

Exam item: CC(=O)N1CC(C)(N(C)c2cc3c(cc2-c2ccccc2F)OCC2=NNC(=O)[C@@H](C)N23)C1 [Example 183] ?
Marked response: 5.00 to 6.00

Exam item: Try Cc1ccc(F)c(-c2cc3c(cc2NC2CNC2)N2C(=NNC(=O)C2C)CO3)c1 (racemic) [Example 31] next.
Marked response: 5.00 to 6.00

Exam item: Same thing, different molecule: Cc1ccc(-c2cc3c(cc2NC2CNC2)N2C(=NNC(=O)C2C)CO3)c(F)c1 (racemic) [Example 12]
Marked response: 5.00 to 6.00

Exam item: Also C[C@H]1C(=O)NN=C2COc3cc(-c4ccccc4)c(NC4CNC4)cc3N21 (single isomer, unassigned) [Example 1-2, trifluoroacetic acid] , if possible.
Marked response: 5.00 to 6.00

Exam item: Moving on to the next molecule: CC1C(=O)NN=C2COc3cc4ccn(C5CN(C)C5)c4cc3N21 (stereo not drawn) [compound 161]
Marked response: 5.00 to 6.00

Exam item: Try the molecule C[C@@H]1C(=O)NN=C2COc3cc(-c4cccc5ccccc45)c(NC4CNC4)cc3N21 [Example 10]
Marked response: 5.00 to 6.00
